- Tested on: ATP;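 note: ATP exposure 15 min at 22 °C before imaging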
- Assay: switch fluorescence ratio, 500 uM ATP over buffer (Cy3 cluster intensity, sum of 5 cycles each) (fold (ratio)); higher = stronger signal-on switching upon ATP binding; sequences stand for … in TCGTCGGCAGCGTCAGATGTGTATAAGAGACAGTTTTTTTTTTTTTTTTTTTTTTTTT…TC
- Run Parameters: aptamer strand: ATP DNA aptamer (quencher-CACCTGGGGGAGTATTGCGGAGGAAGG + anchor), 100 nM annealed; ATP concentration: 500 uM

| Biopolymer Sequence | Target Under Test | switch fluorescence ratio |
| --- | --- | --- |
| TACTGTGACA | ATP | 1.14 |
| AGAGAGCCGT | ATP | 1.06 |
| GGAGGAGGGC | ATP | 0.909 |
| TTTTGGCCAT | ATP | 0.995 |
| AAGGGAAGCG | ATP | 1.01 |
| AAGGTGTGGG | ATP | 1.01 |
| TCGTGCTTGG | ATP | 1 |
| TCATTGGGAC | ATP | 1.06 |
| AAAGGTGTGT | ATP | 1.04 |
| TTTACATTAT | ATP | 0.981 |
| CGGGTTTTCC | ATP | 1.03 |
| GCTCAAGCCT | ATP | 1.06 |
| AAATATATAT | ATP | 0.994 |
| GACTTATCCT | ATP | 1.05 |
| AAGGGAAAAA | ATP | 1.03 |
| GGGGAAAATT | ATP | 0.993 |
| TTTTGTCGGT | ATP | 0.967 |
| GGAATCAGGG | ATP | 0.99 |
| CGTTGAGGTG | ATP | 1.02 |
| ATTTTTTCTG | ATP | 0.991 |
| TATATGTGGC | ATP | 1.07 |
| AGGATTCGGC | ATP | 1.04 |
| GCGGTTTTTT | ATP | 1.22 |
| ATTTTCTTTT | ATP | 1.06 |
| TAGAATTAGG | ATP | 0.987 |
| CATCGTGACT | ATP | 0.994 |
| CTGGGAGAGC | ATP | 1.05 |
| TAAAAGTATT | ATP | 1.03 |
| GACCTTGATT | ATP | 1.03 |
| GGTGTAGGTG | ATP | 0.985 |
| TGAATAAAGC | ATP | 1.05 |
| CTTGGAGTTG | ATP | 1.02 |
| TTTAAGGTAT | ATP | 0.957 |
| GTATTATCTG | ATP | 0.95 |
| ATGGATCCGG | ATP | 1.03 |
| GGGTAAGAGA | ATP | 1.04 |
| CCTTGGGCTT | ATP | 1.04 |
| CGGTTGGGGC | ATP | 1.11 |
| GCGGGATATG | ATP | 0.994 |
| ACTAATATTG | ATP | 1.03 |
| TTTTATCCCC | ATP | 1.08 |
| TGGTTTCGGT | ATP | 0.99 |
| AACTCCAGGG | ATP | 1.35 |
| TTAGTTTATG | ATP | 0.981 |
| TTGCTTACAT | ATP | 1.02 |
| AGTCTTGGGG | ATP | 0.977 |
| AAGCAGCCCT | ATP | 1.02 |
| TATGGGTTAA | ATP | 1.01 |
| AGTTGATGGT | ATP | 0.969 |
| CCGGCACCTG | ATP | 1.02 |
| TCGGCCGGGA | ATP | 1.05 |
| TCATGTTTTG | ATP | 0.997 |
| GGGGCCAAGT | ATP | 0.981 |
| TGGACGTTGC | ATP | 1.03 |
| ATGGCTGTGG | ATP | 0.985 |
| GGGTAGGGCC | ATP | 1.03 |
| CGTAAGTTTT | ATP | 0.98 |
| TTGAAGTAGC | ATP | 1.01 |
| ATGGGTGTAC | ATP | 1.01 |
| TTGACGTTGC | ATP | 1.01 |
| CGGTGGGCGA | ATP | 0.987 |
| ATTCTGCTCC | ATP | 0.991 |
| CGGGTGAGGA | ATP | 1.04 |
| GAACTAGGGC | ATP | 1.02 |
| ACTTTGTTTT | ATP | 1 |
| GGTCGCAGTT | ATP | 0.999 |
| CCGGCTAGTG | ATP | 1.03 |
| ATAGGGGTTT | ATP | 1.01 |
| GAAGAACGGG | ATP | 1.01 |
| AGTCCTGGAG | ATP | 0.993 |
| CTATAACAAT | ATP | 1.02 |
| TCATTAGGAA | ATP | 1 |
| CAGCGAAGAG | ATP | 1.01 |
| TTTCGAATAA | ATP | 0.986 |
| TTGTGAGGGA | ATP | 0.995 |
| CCAGGGGGGT | ATP | 1.99 |
| AGATCCTCTA | ATP | 1 |
| TGCGGAAGTT | ATP | 1.01 |
| ATCCTAGTTT | ATP | 1.02 |
| CGTGTAAGGC | ATP | 0.993 |
| AGTCATCGGG | ATP | 0.973 |
| GATTGAGGAA | ATP | 0.986 |
| ACGTAATGTC | ATP | 1.25 |
| GGTTAGGCGC | ATP | 0.993 |
| GGAAATTGTA | ATP | 0.986 |
| GGAATTCGAT | ATP | 1 |
